- Target or system: bradykinin B2 receptor (Cavia porcellus, UniProt O70526)
- Sequence (O70526 whole entry): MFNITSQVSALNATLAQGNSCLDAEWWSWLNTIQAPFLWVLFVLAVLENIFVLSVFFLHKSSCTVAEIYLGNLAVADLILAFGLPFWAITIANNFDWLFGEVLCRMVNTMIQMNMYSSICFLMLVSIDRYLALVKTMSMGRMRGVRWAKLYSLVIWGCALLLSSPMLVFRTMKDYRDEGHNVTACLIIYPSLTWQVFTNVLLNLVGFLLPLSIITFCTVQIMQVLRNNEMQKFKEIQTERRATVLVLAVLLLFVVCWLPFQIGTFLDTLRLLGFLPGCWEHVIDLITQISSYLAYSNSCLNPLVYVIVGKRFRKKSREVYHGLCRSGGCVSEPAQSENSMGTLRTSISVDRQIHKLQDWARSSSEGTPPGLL
Measured parameter: IC50

Task: IC50 for Cc1nc2c(OCc3c(Cl)ccc(N(C)C(=O)CNC(=O)/C=C/c4ccco4)c3Cl)cccc2s1 ?
Output: < 100 nM
